# Test system: A549 NSCLC
# TEST PROTOCOL: NCI tumour cell line growth inhibition, 384-well format

SMILES DATA: C[C@H](Nc1cc(Cl)nc2c1cnn2[C@@H]1O[C@H](COP(=O)(O)CP(=O)(O)O)[C@@H](O)[C@H]1O)c1ccccc1F
TGI: > 100 µM

SMILES DATA: CN(C)C/C=C/C(=O)Nc1cc2c(Nc3ccc(F)c(Cl)c3)ncnc2cc1O[C@H]1CCOC1
TGI: 2.33 µM

SMILES DATA: CN1CC[C@@H](c2c(O)cc(O)c3c(=O)cc(-c4ccc(C(F)(F)F)cc4Cl)oc23)[C@@H]1CO
TGI: 31.7 µM

SMILES DATA: Cn1c(Nc2ccc(C(F)(F)F)cc2)nc2cc(Oc3ccnc(-c4ncc(C(F)(F)F)[nH]4)c3)ccc21
TGI: 12.4 µM

These measurements were taken from PubChem BioAssay (NCI).
